Source: ChEMBL document CHEMBL3120096

# protocol text: Oral bioavailability in Sprague-Dawley rat at 50 mg/kg
# Format: ADME, organism-based
# recorded conditions: in vivo
observable: bioavailability
Answer shape: numeric part, then the unit.

Give its bioavailability value. Item: CNc1nc(Nc2cn(C(C)(C)C#N)nc2C)ncc1C(F)(F)F
88%

----------
# CLhep predicted at 1 µM per entry
# protocol text: Clearance in human hepatocytes at 1 uM by LC-MS/MS analysis
# Assay type: ADME, cell-based, Hepatocyte
Please give a number only; it is taken to be in L/h/kg.

As a guide, the following entries are already answered.
> print(dat)
                                   compound  measured.number
1  CNc1nc(Nc2cnn([C@H]3CCN(C4COC4)C[C@@H]3F)c2Cl)ncc1C(F)(F)F (relative stereo)             0.06
2  CNc1nc(Nc2cnn(C(C)(C)C#N)c2C)ncc1C(F)(F)F             0.24

Next:
# CLhep predicted at 1 µM lookup, item CNc1nc(Nc2cnn(C3COC3)c2C)ncc1C(F)(F)F
0.12

----------
Below, each entry is listed with its recorded bioavailability.
# protocol text: Oral bioavailability in cynomolgus monkey at 1 mg/kg
# Type: ADME, organism-based, Macaca fascicularis
# recorded conditions: in vivo
Give the number first and the unit second.

> print(dat)
                                   compound       observable  result
1  CNc1nc(Nc2cnn([C@H]3CCN(C4COC4)C[C@@H]3F)c2Cl)ncc1C(F)(F)F (relative stereo)  bioavailability     74%

Consider the additional compound presented here.
Consider the compound CNc1nc(Nc2cn(C(C)(C)C#N)nc2C)ncc1C(F)(F)F and give its measured bioavailability.
35%

----------
# assayed system: Cytochrome P450 1A2 (Homo sapiens, UniProt P05177)
# Sequence (P05177 whole entry): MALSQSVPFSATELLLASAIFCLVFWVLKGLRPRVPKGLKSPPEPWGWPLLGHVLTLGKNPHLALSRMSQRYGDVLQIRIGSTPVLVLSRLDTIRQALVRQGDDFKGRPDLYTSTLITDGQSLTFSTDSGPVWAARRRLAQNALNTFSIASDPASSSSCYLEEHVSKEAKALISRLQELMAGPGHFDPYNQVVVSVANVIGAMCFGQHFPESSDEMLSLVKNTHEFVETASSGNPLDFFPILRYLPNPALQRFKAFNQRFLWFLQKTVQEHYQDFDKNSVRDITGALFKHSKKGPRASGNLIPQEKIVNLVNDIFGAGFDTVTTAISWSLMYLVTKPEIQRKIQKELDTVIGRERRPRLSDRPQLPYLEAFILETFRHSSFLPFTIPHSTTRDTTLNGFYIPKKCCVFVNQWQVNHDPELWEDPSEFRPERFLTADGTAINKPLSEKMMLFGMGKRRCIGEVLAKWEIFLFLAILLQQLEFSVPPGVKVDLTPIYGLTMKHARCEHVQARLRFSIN
# protocol text: Reversible inhibition of CYP1A2 in human liver microsomes using phenacetin as substrate by mass spectrophotometric analysis
# Format: ADME
observable: IC50 (µM)
Supply the numeric figure in µM, leaving out any unit text.

// fetch Cytochrome P450 1A2 (Homo sapiens, UniProt P05177) IC50 for CNc1nc(Nc2cn(C(C)(C)C#N)nc2C)ncc1C(F)(F)F [DNL-201]
0.7

----------
# assayed system: Dual specificity protein kinase TTK (Homo sapiens)
# Sequence (P33981 whole entry): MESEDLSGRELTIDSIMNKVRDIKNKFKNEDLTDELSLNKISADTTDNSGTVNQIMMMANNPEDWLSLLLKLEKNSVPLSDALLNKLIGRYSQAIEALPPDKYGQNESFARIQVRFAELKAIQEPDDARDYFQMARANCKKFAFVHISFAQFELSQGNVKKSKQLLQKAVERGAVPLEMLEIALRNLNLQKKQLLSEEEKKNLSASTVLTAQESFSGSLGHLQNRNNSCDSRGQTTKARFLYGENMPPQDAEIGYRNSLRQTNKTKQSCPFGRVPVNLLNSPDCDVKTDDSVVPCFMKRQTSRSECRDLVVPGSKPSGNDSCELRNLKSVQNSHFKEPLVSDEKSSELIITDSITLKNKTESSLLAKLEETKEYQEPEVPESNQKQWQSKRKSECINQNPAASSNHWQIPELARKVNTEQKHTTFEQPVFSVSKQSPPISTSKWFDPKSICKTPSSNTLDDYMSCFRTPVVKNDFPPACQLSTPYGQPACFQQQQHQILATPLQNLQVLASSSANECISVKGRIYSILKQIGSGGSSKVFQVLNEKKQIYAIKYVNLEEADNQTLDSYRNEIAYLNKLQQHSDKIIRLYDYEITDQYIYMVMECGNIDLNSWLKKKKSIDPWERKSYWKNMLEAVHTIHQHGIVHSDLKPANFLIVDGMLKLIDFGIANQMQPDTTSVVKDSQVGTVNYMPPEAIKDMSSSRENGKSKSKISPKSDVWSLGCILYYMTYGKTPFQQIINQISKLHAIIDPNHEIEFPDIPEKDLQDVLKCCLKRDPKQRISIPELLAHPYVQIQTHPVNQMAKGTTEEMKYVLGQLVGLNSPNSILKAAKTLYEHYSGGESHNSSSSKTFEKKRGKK
observable: Ki (nM)
Give the number; nM is assumed, so skip it.

Requested field: Ki. Item: CNc1nc(Nc2cn(C(C)(C)C#N)nc2C)ncc1C(F)(F)F
150

----------
# protocol text: Ratio of unbound drug level in brain to plasma in Sprague-Dawley rat
# Type: ADME, organism-based
Each item that follows carries a reported Kp uu.
Output spec: single numeric token, no unit.

As a guide, the following entries are already answered.
> print(dat)
                                   molecule  measured.number
1  CNc1nc(Nc2cnn([C@H]3CCN(C4COC4)C[C@@H]3F)c2Cl)ncc1C(F)(F)F (relative stereo)             0.51
2  CCNc1nc(Nc2cc(C(C)(C)C#N)nn2C)ncc1C(F)(F)F              0.5
3  CNc1nc(Nc2cnn(C(C)(C)C#N)c2C)ncc1C(F)(F)F              0.4
4  CNc1nc(Nc2cnn(C3CCN(C4COC4)CC3)c2C)ncc1C(F)(F)F             0.06

--- query ---
Given the entry CNc1nc(Nc2cn(C3(C#N)CC3)nc2C)ncc1C(F)(F)F , report its measured Kp uu.
0.4
